# credit: ChEMBL document CHEMBL5241120

Biological target: liver carboxylesterase (CES) (Sus scrofa, UniProt Q29550)
Sequence (Q29550 whole entry): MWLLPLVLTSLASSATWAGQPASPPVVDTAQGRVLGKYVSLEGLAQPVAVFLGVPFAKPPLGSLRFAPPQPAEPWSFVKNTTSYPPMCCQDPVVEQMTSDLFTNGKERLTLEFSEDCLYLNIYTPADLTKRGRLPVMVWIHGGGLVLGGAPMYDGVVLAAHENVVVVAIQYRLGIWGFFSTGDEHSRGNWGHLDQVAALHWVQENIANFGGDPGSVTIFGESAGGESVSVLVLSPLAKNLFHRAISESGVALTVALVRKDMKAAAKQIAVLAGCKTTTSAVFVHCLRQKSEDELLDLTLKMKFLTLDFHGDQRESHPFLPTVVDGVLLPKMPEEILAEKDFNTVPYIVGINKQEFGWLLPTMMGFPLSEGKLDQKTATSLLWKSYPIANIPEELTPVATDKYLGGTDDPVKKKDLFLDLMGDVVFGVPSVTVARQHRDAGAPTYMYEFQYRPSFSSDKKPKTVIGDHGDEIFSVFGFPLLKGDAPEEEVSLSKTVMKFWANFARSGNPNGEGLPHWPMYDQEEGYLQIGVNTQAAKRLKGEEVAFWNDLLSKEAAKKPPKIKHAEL
Assay: Inhibition of pig liver CES at 20 uM relative to control
Assay type: tissue-based
inhibition at 20 µM listing for selected compounds.

Smiles Code: O=[N+]([O-])c1ccc(OP(=O)(O)Oc2ccc([N+](=O)[O-])cc2)cc1
Tested On: liver carboxylesterase (CES) (Sus scrofa, UniProt Q29550)
inhibition at 20 µM [%]: 1.8

Smiles Code: CC1=Nc2cc(-c3ccccc3)nn2C(=O)/C1=N\Nc1ccc(C)cc1
Tested On: liver carboxylesterase (CES) (Sus scrofa, UniProt Q29550)
inhibition at 20 µM [%]: 22.8

Smiles Code: Cc1ccc(N/N=C2\C(=O)n3nc(-c4ccccc4)cc3N=C2C(F)(F)F)cc1
Tested On: liver carboxylesterase (CES) (Sus scrofa, UniProt Q29550)
inhibition at 20 µM [%]: 2.91
